Hi there, I'd appreciate the recorded growth for every entry that follows.
Tested on: LOX IMVI melanoma
experiment_summary: NCI-60 one-dose screen, 48 h (100 = growth as untreated, 0 = no growth, -100 = all killed)
measurement_setup: 10 µM unless noted
Procedure: Growth inhibition of the LOX IMVI human tumor cell line is measured as a screen for anti-cancer activity. Cells are grown in 96 well plates and exposed to the test compound for 48 hours. Compounds are tested at a single concentration, which is 10^-5 M for most compounds. The reported endpoint is percent growth (GI% or GIPRCNT), where numbers from 0 - 100% represent growth inhibition, and numbers from -100% - 0 represent cell death. For example, a value of 40 represents 60% growth inhibition. […]
This is part of a sample that, as a whole, favours compounds with a hit. Of some 83,000 tested, about 20% had one in any assay.
Provide the reading as a plain figure in %.

Entry COc1ccc(C2C(C#N)=C(N)Oc3c2sc2ccc(C)cc32)cc1 (centres undefined) — recorded growth = 38

Entry COc1ccc2oc3c4[nH]c5ccccc5c4c4c(c3c2c1)C(=O)N(O)C4=O — recorded growth = 116

Entry O=C1CC2(CCOCC2)Oc2ncccc21 — recorded growth = -78.7

Entry COCCOc1ccc(-c2csc(NC(C)=O)n2)cc1NS(=O)(=O)c1cccc2c(N(C)C)cccc12 — recorded growth = 98.4

Entry Nc1ccc(-c2nnc(SCc3ccc(O)c4ncccc34)n2-c2ccccc2)cc1 — recorded growth = 14

Entry CN1CCN(Cc2ccc(NC(=O)c3cncc(C#Cc4[nH]nc5ncncc45)c3)cc2C(F)(F)F)CC1 — recorded growth = 13

Entry Oc1ccc(CSc2nnc(-c3ccc(Cl)cc3)o2)c2cccnc12 — recorded growth = 4.17

Entry COc1ccc(-c2nnc(SCc3ccc(O)c4ncccc34)n2-c2ccccc2)cc1 — recorded growth = -10.9

Entry Cn1cc(-c2nn3cc(-c4cccnc4)nc3s2)c2cc(F)ccc21 — recorded growth = 85.7

----------
Test system: HOP-62 NSCLC
experiment_summary: NCI-60 one-dose screen, 48 h (100 = growth as untreated, 0 = no growth, -100 = all killed)
measurement_setup: 10 µM unless noted
Compounds without any hit were thinned out: in the full panel of roughly 83,000, 20% have a hit.
Values of growth greater than or equal to 80% map to YES; values below map to NO.

Can CC(C)Sc1nc(NC2CC2)c(C#N)c(-c2ccccc2)n1 be said to have growth at or above 80%? NO

Can COc1cc2cc(Oc3ccc(NC(=O)Nc4cccc(C(F)(F)F)c4)cc3)c(C)nc2cc1OCCN(C)C be said to have growth at or above 80%? YES

Can COc1cc2oc(-c3cccc(NC(=O)c4cc(NC(=O)[C@H](C)NC(=O)OC(C)(C)C)ccc4C)c3)cc(=O)c2c(OC)c1OC be said to have growth at or above 80%? YES

Can COc1cccc(/C=C/C(=O)c2ccc(NC(=O)COc3cccc4cccnc34)cc2)c1 be said to have growth at or above 80%? YES

Can CCc1ccc(NC(=O)N[C@@H](Cc2cccc(F)c2)C(=O)N[C@@H]2C(=O)N3CCC[C@H]3C(=O)N3CCCC[C@H]3C(=O)N[C@@H](CO)C(=O)N3C[C@H](C)C[C@H]3C(=O)O[C@H]2C)c(F)c1 be said to have growth at or above 80%? NO

Can O=C(N/N=C\c1ccc(Cl)cc1)c1ccc2nc(-c3ccc(Br)cc3)[nH]c2c1 be said to have growth at or above 80%? NO

Can O=C(Nc1cc(Cl)cc(Cl)c1)Nc1ccc2oc(=O)ccc2c1 be said to have growth at or above 80%? NO

Can O=C(/C=C/Nc1ccc(S(=O)(=O)O)cc1)c1ccc(F)cc1 be said to have growth at or above 80%? YES

Can O=C1CSC(=O)N1Cc1cc2ccccc2nc1Cl be said to have growth at or above 80%? YES

Can N/C(=N\c1nc2ccc([N+](=O)[O-])cc2s1)C(Cl)(Cl)Cl be said to have growth at or above 80%? NO

Can Oc1ccc(CSc2nnc(-c3ccncc3)n2-c2ccccc2)c2cccnc12 be said to have growth at or above 80%? NO

Can C=CCn1c(SCC(=O)Nc2ccc(OC)cc2)nnc1-c1ccc(Cl)cc1 be said to have growth at or above 80%? YES

Can CN1CCN(c2ccc3c(C(N)=O)c(NC(=O)c4ccc(C(C)(C)C)cc4)sc3c2)CC1 be said to have growth at or above 80%? YES
